test system: human TH17 cells; assay: Inhibition of IL-17 release from human TH17 cells; assay type: cell-based; details: Homo sapiens, 96 h, isolated human TH17 cells, 4 days culture, IL-17A by HTRF; read-out: pIC50 IL-17 release (converted)

- compound: "CCS(=O)(=O)c1ccc2c(c1)CN(C(=O)CC(C)(C)O)C2C(=O)Nc1ccc(C(O)(C(F)(F)F)C(F)(F)F)cc1 (centres unmarked) [Example 106]"
  IC50 (nM): 63.1
- compound: "O=C(Nc1ccc(C(O)(C(F)(F)F)C(F)(F)F)cc1)C1c2ccc(S(=O)(=O)C3CC3)cc2CN1C(=O)[C@H]1CCCO1 (some centres unmarked) [Example 609]"
  IC50 (nM): 50.1
- compound: "CNS(=O)(=O)c1ccc2c(c1)CN(C(=O)COC)C2C(=O)Nc1ccc(C(O)(C(F)(F)F)C(F)(F)F)cc1 (centres unmarked) [Example 308]"
  IC50 (nM): 31.6
- compound: "CC(C)CC(=O)N1Cc2cc(S(C)(=O)=O)ccc2C1C(=O)Nc1ccc(C(O)(C(F)(F)F)C(F)(F)F)cc1 (centres unmarked) [Example 410]"
  IC50 (nM): 20
- compound: "CCOC(=O)N1Cc2cc(S(=O)(=O)NC)ccc2C1C(=O)Nc1ccc(C(O)(C(F)(F)F)C(F)(F)F)cc1 (centres unmarked) [Example 305]"
  IC50 (nM): 10
- compound: "CC(=O)N1Cc2cc(S(=O)(=O)CC(C)C)ccc2C1C(=O)Nc1ccc(C(O)(C(F)(F)F)C(F)(F)F)cc1 (centres unmarked) [Example 1001]"
  IC50 (nM): 100
- compound: "O=C(Nc1ccc(C(O)(C(F)(F)F)C(F)(F)F)cc1)C1NCc2cc(S(=O)(=O)CC3(O)CC3)ccc21 (centres unmarked) [Example 1100]"
  IC50 (nM): 200
- compound: "CS(=O)(=O)c1ccc2c(c1)CN(C(=O)CC1(O)CC1)C2C(=O)Nc1ccc(C(O)(C(F)(F)F)C(F)(F)F)cc1 (centres unmarked) [Example 412]"
  IC50 (nM): 25.1
- compound: "CCOC1(C(=O)N2Cc3cc(S(C)(=O)=O)ccc3C2C(=O)Nc2ccc(C(O)(C(F)(F)F)C(F)(F)F)cc2)CC1 (centres unmarked) [Example 416]"
  IC50 (nM): 31.6
- compound: "CCC(OC)C(=O)N1Cc2cc(S(=O)(=O)NC)ccc2C1C(=O)Nc1ccc(C(O)(C(F)(F)F)C(F)(F)F)cc1 (centres unmarked) [Example 312]"
  IC50 (nM): 39.8
- compound: "O=C(Nc1ccc(C(O)(C(F)(F)F)C(F)(F)F)cc1)C1c2ccc(S(=O)(=O)CC3CC3)cc2CN1C(=O)CC1(O)CC1 (centres unmarked) [Example 206]"
  IC50 (nM): 39.8
- compound: "CNC(=O)N1Cc2cc(S(=O)(=O)C3CC3)ccc2C1C(=O)Nc1ccc(C(O)(C(F)(F)F)C(F)(F)F)cc1 (centres unmarked) [Example 610]"
  IC50 (nM): 63.1
- compound: "CC(C)[C@H](O)C(=O)N1Cc2cc(S(C)(=O)=O)ccc2C1C(=O)Nc1ccc(C(O)(C(F)(F)F)C(F)(F)F)cc1 (single isomer, unassigned) [Example 423]"
  IC50 (nM): 79.4
- compound: "COCC(=O)N1Cc2cc(S(=O)(=O)C3CC3)ccc2C1C(=O)Nc1ccc(C(O)(C(F)(F)F)C(F)(F)F)cc1 (centres unmarked) [Example 606]"
  IC50 (nM): 31.6
- compound: "CC(C)(O)CC(=O)N1Cc2cc(S(=O)(=O)CC3CC3)ccc2C1C(=O)Nc1ccc(C(O)(C(F)(F)F)C(F)(F)F)cc1 (centres unmarked) [Example 207]"
  IC50 (nM): 39.8
- compound: "COCCS(=O)(=O)c1ccc2c(c1)CN(C(=O)OC)C2C(=O)Nc1ccc(C(O)(C(F)(F)F)C(F)(F)F)cc1 (centres unmarked) [Example 704]"
  IC50 (nM): 25.1
- compound: "O=C(Nc1ccc(C(O)(C(F)(F)F)C(F)(F)F)cc1)C1c2ccc(S(=O)(=O)CC3CC3)cc2CN1C(=O)C1CCOC1 (centres unmarked) [Example 210]"
  IC50 (nM): 25.1
- compound: "CS(=O)(=O)c1ccc2c(c1)CN(C(=O)C1CC(O)C1)C2C(=O)Nc1ccc(C(O)(C(F)(F)F)C(F)(F)F)cc1 (centres unmarked) [Example 430]"
  IC50 (nM): 126
- compound: "CS(=O)(=O)c1ccc2c(c1)CN(C(N)=O)C2C(=O)Nc1ccc(C(O)(C(F)(F)F)C(F)(F)F)cc1 (centres unmarked) [Example 455]"
  IC50 (nM): 100
- compound: "COC1(CC(=O)N2Cc3cc(S(C)(=O)=O)ccc3C2C(=O)Nc2ccc(C(O)(C(F)(F)F)C(F)(F)F)cc2)CC1 (centres unmarked) [Example 417]"
  IC50 (nM): 31.6
- compound: "CNS(=O)(=O)c1ccc2c(c1)CN(C(=O)OC)C2C(=O)Nc1ccc(C(O)(C(F)(F)F)C(F)(F)F)cc1 (centres unmarked) [Example 304]"
  IC50 (nM): 12.6
- compound: "CCS(=O)(=O)c1ccc2c(c1)CN(C(=O)C1CCOC1)C2C(=O)Nc1ccc(C(O)(C(F)(F)F)C(F)(F)F)cc1 (centres unmarked) [Example 113]"
  IC50 (nM): 79.4
- compound: "CCS(=O)(=O)c1ccc2c(c1)CN(C(=O)CC1CCC1)C2C(=O)Nc1ccc(C(O)(C(F)(F)F)C(F)(F)F)cc1 (centres unmarked) [Example 109]"
  IC50 (nM): 20
- compound: "CCS(=O)(=O)c1ccc2c(c1)CN(C(=O)C(F)(F)C1CC1)C2C(=O)Nc1ccc(C(O)(C(F)(F)F)C(F)(F)F)cc1 (centres unmarked) [Example 104]"
  IC50 (nM): 20
- compound: "N#CC1(C(=O)N2Cc3cc(S(=O)(=O)CC4CC4)ccc3C2C(=O)Nc2ccc(C(O)(C(F)(F)F)C(F)(F)F)cc2)CC1 (centres unmarked) [Example 209]"
  IC50 (nM): 25.1
- compound: "O=CN1Cc2cc(S(=O)(=O)C3CC3)ccc2C1C(=O)Nc1ccc(C(O)(C(F)(F)F)C(F)(F)F)cc1 (centres unmarked) [Example 604]"
  IC50 (nM): 50.1

* * *

tested on: human TH17 cells; experiment: Inhibition of IL-17 release from human TH17 cells; assay type: cell-based; details: Homo sapiens, 96 h, isolated human TH17 cells, 4 days culture, IL-17A by HTRF; read-out: pIC50 IL-17 release (converted)
observation-type: IC50 (µM)

- compound: "CS(=O)(=O)c1ccc2c(c1)CN(C(=O)CC1(C#N)CC1)C2C(=O)Nc1ccc(C(O)(C(F)(F)F)C(F)(F)F)cc1 (stereo not shown)"
  observed: 0.1
- compound: "CNC(=O)N1Cc2cc(S(=O)(=O)NC)ccc2C1C(=O)Nc1ccc(C(O)(C(F)(F)F)C(F)(F)F)cc1 (stereo not shown)"
  observed: 0.0631
- compound: "CCS(=O)(=O)c1ccc2c(c1)CN(C(=O)CC1(OC)CC1)C2C(=O)Nc1ccc(C(O)(C(F)(F)F)C(F)(F)F)cc1 (stereo not shown)"
  observed: 0.0316
- compound: "O=C(Nc1ccc(C(O)(C(F)(F)F)C(F)(F)F)cc1)C1c2ccc(S(=O)(=O)CC3(O)CC3)cc2CN1C(=O)CO (stereo not shown)"
  observed: 0.501
- compound: "COC(=O)N1Cc2cc(S(=O)(=O)CC3CC3)ccc2C1C(=O)Nc1ccc(C(O)(C(F)(F)F)C(F)(F)F)cc1 (stereo not shown)"
  observed: 0.00794
- compound: "CCOC(=O)N1Cc2cc(S(=O)(=O)CC3CC3)ccc2C1C(=O)Nc1ccc(C(O)(C(F)(F)F)C(F)(F)F)cc1 (stereo not shown)"
  observed: 0.00794
- compound: "CNS(=O)(=O)c1ccc2c(c1)CN(C(=O)[C@@H]1CCCO1)C2C(=O)Nc1ccc(C(O)(C(F)(F)F)C(F)(F)F)cc1 (stereo partly shown)"
  observed: 0.0316
- compound: "CC(C)OC(=O)N1Cc2cc(S(C)(=O)=O)ccc2C1C(=O)Nc1ccc(C(O)(C(F)(F)F)C(F)(F)F)cc1 (stereo not shown)"
  observed: 0.0794
- compound: "COCCS(=O)(=O)c1ccc2c(c1)CNC2C(=O)Nc1ccc(C(O)(C(F)(F)F)C(F)(F)F)cc1 (stereo not shown)"
  observed: 0.1
- compound: "COC(=O)N1Cc2cc(S(=O)(=O)CC3(C#N)CC3)ccc2C1C(=O)Nc1ccc(C(O)(C(F)(F)F)C(F)(F)F)cc1 (stereo not shown)"
  observed: 0.0501
- compound: "CS(=O)(=O)c1ccc2c(c1)CN(C(=O)NC1CC1)C2C(=O)Nc1ccc(C(O)(C(F)(F)F)C(F)(F)F)cc1 (stereo not shown)"
  observed: 0.0126
- compound: "CCS(=O)(=O)c1ccc2c(c1)CN(C(=O)C1CCCO1)C2C(=O)Nc1ccc(C(O)(C(F)(F)F)C(F)(F)F)cc1 (stereo not shown)"
  observed: 0.0316
- compound: "CCS(=O)(=O)c1ccc2c(c1)CN(C(=O)C1(CO)CC1)C2C(=O)Nc1ccc(C(O)(C(F)(F)F)C(F)(F)F)cc1 (stereo not shown)"
  observed: 0.0794
